Tested on: P. berghei
Experiment: Prophylactic activity against P. berghei in vivo (mice dosed before infection)
Conditions: single 30 mg/kg oral dose 24 h prior to infection; n=5 mice
Measured Cures 24 h prior to infection (30 mg/kg), listed per entry.
quantity.measured: Cures 24 h prior to infection (30 mg/kg)

In [3]: df
Out[3]:
                                   compound  measured
0  CC(C)(N)CNC(=O)C[C@H]1CC[C@]2(CC1)OO[C@]1(O2)C2CC3CC(C2)CC1C3 [OZ277, reference compound]       0/5
1  CCN(CC)CCCC(C)Nc1ccnc2cc(Cl)ccc12 (stereo not drawn) [CQ, chloroquine, reference compound]       0/5
2  OC1CCN(CCOc2ccc([C@H]3CC[C@]4(CC3)OOC3(O4)C4CC5CC(C4)CC3C5)cc2)CC1 (stereo partly drawn)       1/5
